system: HCC1937; experiment: Cytotoxicity against human HCC1937 cells assessed as inhibition of cell viability incubated for 72 hrs by SRB assay; format: functional, cell-based; details: HCC1937, 72 h
pIC50: −log10 of the molar value.
experimental-readout: pIC50

- smiles-entry: "C=C1C(=O)[C@]23[C@H](OC(=O)C45CC6CC(CC(C6)C4)C5)[C@H]1CC[C@H]2[C@@]12CO[C@]3(O)[C@@H](O)[C@@H]1C(C)(C)CC[C@@H]2O"
  readout-value: 6.21
